# subjectOfTest: Insulin receptor (Homo sapiens) (UniProt P06213)
# Sequence (P06213 28-758 limits assumed): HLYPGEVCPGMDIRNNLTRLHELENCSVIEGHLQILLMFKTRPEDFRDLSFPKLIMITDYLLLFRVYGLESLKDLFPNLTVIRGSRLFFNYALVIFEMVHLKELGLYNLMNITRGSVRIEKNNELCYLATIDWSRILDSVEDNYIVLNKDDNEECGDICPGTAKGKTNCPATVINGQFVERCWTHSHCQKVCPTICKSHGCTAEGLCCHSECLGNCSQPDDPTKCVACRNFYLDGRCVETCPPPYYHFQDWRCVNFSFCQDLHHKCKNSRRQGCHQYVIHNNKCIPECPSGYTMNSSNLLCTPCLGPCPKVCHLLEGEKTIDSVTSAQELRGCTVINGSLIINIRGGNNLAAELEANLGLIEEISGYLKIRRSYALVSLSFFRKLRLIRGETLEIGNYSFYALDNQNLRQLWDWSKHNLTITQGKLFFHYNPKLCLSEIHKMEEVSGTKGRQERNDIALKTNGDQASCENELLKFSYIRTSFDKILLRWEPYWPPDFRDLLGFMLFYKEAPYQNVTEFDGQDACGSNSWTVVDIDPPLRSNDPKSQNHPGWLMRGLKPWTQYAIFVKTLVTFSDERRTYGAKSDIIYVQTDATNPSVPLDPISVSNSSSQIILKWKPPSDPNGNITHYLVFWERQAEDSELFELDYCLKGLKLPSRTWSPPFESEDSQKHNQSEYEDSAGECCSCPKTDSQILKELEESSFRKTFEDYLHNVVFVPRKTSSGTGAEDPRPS
# Sequence (P06213 763-1382 limits assumed): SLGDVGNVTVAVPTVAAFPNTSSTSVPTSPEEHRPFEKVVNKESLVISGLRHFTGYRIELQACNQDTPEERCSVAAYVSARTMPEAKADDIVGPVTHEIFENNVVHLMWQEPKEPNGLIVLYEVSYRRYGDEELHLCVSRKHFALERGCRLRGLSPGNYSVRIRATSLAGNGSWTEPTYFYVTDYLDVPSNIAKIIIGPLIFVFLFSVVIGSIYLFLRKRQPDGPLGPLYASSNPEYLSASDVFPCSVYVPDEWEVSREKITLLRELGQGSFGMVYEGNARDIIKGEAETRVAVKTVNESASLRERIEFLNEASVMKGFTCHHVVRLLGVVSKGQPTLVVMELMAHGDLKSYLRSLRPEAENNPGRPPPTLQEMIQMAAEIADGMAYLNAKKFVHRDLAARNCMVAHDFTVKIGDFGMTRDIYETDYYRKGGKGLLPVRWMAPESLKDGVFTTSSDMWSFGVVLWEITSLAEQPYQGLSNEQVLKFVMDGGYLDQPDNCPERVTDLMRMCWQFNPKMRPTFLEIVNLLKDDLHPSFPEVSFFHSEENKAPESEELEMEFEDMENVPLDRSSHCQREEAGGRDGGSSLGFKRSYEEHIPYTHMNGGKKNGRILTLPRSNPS
# experimentalConditions: at 10 µM
propertyMeasured: residual activity (%)
# output: bare number, implied unit %

// solved cases for residual activity follow
>  <chemicalStructure>
CCOC(=O)c1c(C)[nH]c(/C=C2\C(=O)Nc3ccccc32)c1C

>  <residual activity (%)>
96

$$$$
>  <chemicalStructure>
CN(C)S(=O)(=O)c1ccc2c(c1)/C(=C/c1cc3c([nH]1)CCCC3)C(=O)N2

>  <residual activity (%)>
88

$$$$
>  <chemicalStructure>
O=C1NC(=O)c2c1c1c3ccccc3[nH]c1n1cncc21

>  <residual activity (%)>
15

$$$$
>  <chemicalStructure>
O=c1cc(N2CCOCC2)oc2c1ccc1ccccc12

>  <residual activity (%)>
91

$$$$

Task item: Could you tell me which residual activity is on file for O=C(CCCc1ccc(-c2ccccc2F)cc1)Nc1ccc(O)cc1 ?
Reply: 102

Task item: Which residual activity value belongs to CCN(CC)CCNC(=O)c1c(C)[nH]c(/C=C2\C(=O)Nc3ccc(Cl)cc32)c1C ?
Reply: 6

Task item: Requested field: residual activity. Item: O=C1C(Cl)=C(N2C(=O)CCC2=O)C(=O)c2ccccc21
Reply: 87

Task item: Requested field: residual activity. Item: CC(C)[C@H](CO)Nc1nc(Nc2cc(N)cc(Cl)c2)c2ncn(C(C)C)c2n1
Reply: 50

Task item: Return reported residual activity; argument: Nc1ncnc2[nH]nc(Nc3ccc(F)cc3)c12
Reply: 103
